# experiment-description: The pKa of the sulfonamido group of the compound
# Type: physicochemical

{"smiles-str": "Cc1cccc(Nc2ccncc2S(=O)(=O)/N=C(\\NC#N)N2CCCCCC2)c1", "pKa": 6}
